Examples of sequences with documented self-splicing fitness (ln) follow.
Experiment: self-splicing fitness, log relative to wild type (ln ratio); higher = more splicing; Tetrahymena group I intron in knt gene, E. coli kanamycin selection, DiMSum; sequences stand for … in CUCUCU…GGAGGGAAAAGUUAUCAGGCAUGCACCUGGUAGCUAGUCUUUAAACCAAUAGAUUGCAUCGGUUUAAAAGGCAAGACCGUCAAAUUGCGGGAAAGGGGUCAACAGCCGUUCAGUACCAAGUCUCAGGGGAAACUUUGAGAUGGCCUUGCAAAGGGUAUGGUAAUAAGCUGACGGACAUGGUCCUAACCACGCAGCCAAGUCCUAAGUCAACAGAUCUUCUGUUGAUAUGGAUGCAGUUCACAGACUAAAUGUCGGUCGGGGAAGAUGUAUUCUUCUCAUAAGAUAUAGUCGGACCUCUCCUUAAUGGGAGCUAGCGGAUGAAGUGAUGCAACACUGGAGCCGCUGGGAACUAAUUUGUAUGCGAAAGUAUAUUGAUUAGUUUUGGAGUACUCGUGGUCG;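 note: selection with 25 µg/mL kanamycin versus none on LB agar overnight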
Settings: 37 °C
Readout Label: self-splicing fitness (ln)

# Sequence Content, Observed Result
rows = [
    ("CGUUAGCAAUAUUACGCAAC", -2.01),
    ("CGGGAGCAAUAUUACGUCAG", -2.34),
    ("CGUAAGCAAUAUUACGGUCG", 0.212),
    ("CGACAGCAAUAUUACGAGUC", -2.42),
    ("GGGUAGCAAUAUUACGCGGU", -1.4),
    ("CGGGAGCAAUAUUACGCUCA", -0.0948),
    ("GCCAAGCAAUAUUACGAUGG", -1.79),
    ("AUAAAGCAAUAUUACGCCGG", -0.807),
    ("UUGGAGCAAUAUUACGGAUG", -2.12),
    ("UGCAAGCAAUAUUACGAUCU", -0.822),
    ("GGAGAGCAAUAUUACGAAAA", -0.772),
    ("CUGAAGCAAUAUUACGCCGU", -2.4),
    ("ACGCAGCAAUAUUACGCCCG", -0.64),
    ("UACUAGCAAUAUUACGAUUU", -0.92),
    ("UGAAAGCAAUAUUACGAAGC", -2.07),
    ("CAGCAGCAAUAUUACGAUUU", -1.91),
    ("CCACAGCAAUAUUACGGGCU", -3.07),
    ("UCUUAGCAAUAUUACGGAGU", -2.28),
]

====

Experiment: self-splicing fitness, log relative to wild type (ln ratio); higher = more splicing; Tetrahymena group I intron in knt gene, E. coli kanamycin selection, DiMSum; sequences stand for … in CUCUCU…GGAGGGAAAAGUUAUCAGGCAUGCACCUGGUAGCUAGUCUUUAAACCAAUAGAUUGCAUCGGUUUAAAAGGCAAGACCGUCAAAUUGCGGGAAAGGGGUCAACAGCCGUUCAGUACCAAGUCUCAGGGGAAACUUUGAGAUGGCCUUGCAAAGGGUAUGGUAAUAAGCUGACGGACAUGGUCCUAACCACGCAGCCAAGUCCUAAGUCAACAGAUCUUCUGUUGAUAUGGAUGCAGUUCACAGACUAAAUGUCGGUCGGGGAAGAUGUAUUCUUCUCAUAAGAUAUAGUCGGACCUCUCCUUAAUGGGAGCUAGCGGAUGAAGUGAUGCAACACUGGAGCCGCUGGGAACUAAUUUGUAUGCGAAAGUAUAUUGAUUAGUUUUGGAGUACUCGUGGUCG
Settings: 37 °C
Examples of sequences with documented self-splicing fitness (ln) follow.
Readout Label: self-splicing fitness (ln)

# Sequence Content, Readout Label, Observed Result
data = [
    ("ACUAAGCAAUAUUACGGACC", "self-splicing fitness (ln)", -0.596),
    ("UAGCAGCAAUAUUACGGAAU", "self-splicing fitness (ln)", -2.13),
    ("GGAAAGCAAUAUUACGUGAA", "self-splicing fitness (ln)", -1.45),
    ("UCCAAGCAAUAUUACGUUGA", "self-splicing fitness (ln)", -0.109),
    ("UAGGAGCAAUAUUACGCAUU", "self-splicing fitness (ln)", -2.42),
    ("GUUUAGCAAUAUUACGGUGC", "self-splicing fitness (ln)", 0.233),
    ("UCCUAGCAAUAUUACGGUAC", "self-splicing fitness (ln)", -3.32),
    ("GUAGAGCAAUAUUACGGGUC", "self-splicing fitness (ln)", -1.37),
    ("AAGUAGCAAUAUUACGGAUA", "self-splicing fitness (ln)", -1.66),
    ("CGUUAGCAAUAUUACGCAUA", "self-splicing fitness (ln)", -1.37),
    ("UGCAAGCAAUAUUACGGCAC", "self-splicing fitness (ln)", -3.28),
    ("CCAGAGCAAUAUUACGUUCU", "self-splicing fitness (ln)", -1.84),
    ("UAUCAGCAAUAUUACGUGCC", "self-splicing fitness (ln)", -1.95),
    ("GGGCAGCAAUAUUACGAUAG", "self-splicing fitness (ln)", -2.43),
    ("UCCAAGCAAUAUUACGAUUC", "self-splicing fitness (ln)", -2.18),
    ("GGAUAGCAAUAUUACGCCUU", "self-splicing fitness (ln)", 0.31),
    ("AACGAGCAAUAUUACGGUAA", "self-splicing fitness (ln)", -2.47),
    ("CGAGAGCAAUAUUACGUGUU", "self-splicing fitness (ln)", -3.71),
    ("AACUAGCAAUAUUACGCUUC", "self-splicing fitness (ln)", -1.68),
    ("AUUCAGCAAUAUUACGGACA", "self-splicing fitness (ln)", -0.744),
    ("GCCGAGCAAUAUUACGGACC", "self-splicing fitness (ln)", -1.51),
    ("ACCAAGCAAUAUUACGCCGA", "self-splicing fitness (ln)", -1.81),
    ("CACCAGCAAUAUUACGUCGC", "self-splicing fitness (ln)", -2.28),
    ("UACGAGCAAUAUUACGCUAU", "self-splicing fitness (ln)", -3.49),
    ("GUGAAGCAAUAUUACGUCAU", "self-splicing fitness (ln)", -2.68),
    ("ACAUAGCAAUAUUACGUGCG", "self-splicing fitness (ln)", -0.527),
    ("UCGCAGCAAUAUUACGACGG", "self-splicing fitness (ln)", -0.0065),
    ("UCCUAGCAAUAUUACGUCAG", "self-splicing fitness (ln)", -2.41),
    ("UGACAGCAAUAUUACGGAUU", "self-splicing fitness (ln)", -2.29),
    ("GUAUAGCAAUAUUACGAUCC", "self-splicing fitness (ln)", 1.03),
    ("ACCCAGCAAUAUUACGUUUU", "self-splicing fitness (ln)", -0.336),
    ("AAAUAGCAAUAUUACGUGUC", "self-splicing fitness (ln)", -3.29),
    ("CACUAGCAAUAUUACGGACG", "self-splicing fitness (ln)", 0.332),
    ("CCGCAGCAAUAUUACGCUUG", "self-splicing fitness (ln)", -2.84),
]

====

Experiment: self-splicing fitness, log relative to wild type (ln ratio); higher = more splicing; Tetrahymena group I intron in knt gene, E. coli kanamycin selection, DiMSum; sequences stand for … in CUCUCU…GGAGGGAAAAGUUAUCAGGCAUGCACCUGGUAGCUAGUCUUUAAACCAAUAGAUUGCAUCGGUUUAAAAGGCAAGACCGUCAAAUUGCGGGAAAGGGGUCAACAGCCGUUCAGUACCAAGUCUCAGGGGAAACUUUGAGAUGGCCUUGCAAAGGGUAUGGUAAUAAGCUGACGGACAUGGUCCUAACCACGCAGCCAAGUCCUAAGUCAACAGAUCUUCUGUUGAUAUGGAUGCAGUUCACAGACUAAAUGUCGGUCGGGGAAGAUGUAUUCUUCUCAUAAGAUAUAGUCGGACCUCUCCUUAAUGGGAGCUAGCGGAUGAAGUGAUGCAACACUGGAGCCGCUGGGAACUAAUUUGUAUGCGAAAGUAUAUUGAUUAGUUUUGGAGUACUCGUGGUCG
Conditions: 37 °C
Returns rule met if the recorded self-splicing fitness (ln) is greater than or equal to -2, and rule not met otherwise.

# Sequence Content, Class
rows = [
    ("UUUGAGCAAUAUUACGUAAG", "rule met"),
    ("ACCCAGCAAUAUUACGGUCG", "rule met"),
    ("GAGAAGCAAUAUUACGAGGA", "rule not met"),
    ("UGUUAGCAAUAUUACGGCCG", "rule met"),
    ("ACUAAGCAAUAUUACGGAGA", "rule not met"),
    ("AGAUAGCAAUAUUACGAUAA", "rule met"),
    ("UAGCAGCAAUAUUACGGACA", "rule met"),
    ("UCUAAGCAAUAUUACGAGGU", "rule met"),
    ("CAUAAGCAAUAUUACGACCA", "rule not met"),
    ("CCUUAGCAAUAUUACGGUCC", "rule not met"),
    ("ACCUAGCAAUAUUACGUGCC", "rule met"),
    ("AGACAGCAAUAUUACGCUGC", "rule not met"),
    ("GAUCAGCAAUAUUACGAGCA", "rule met"),
    ("GCCUAGCAAUAUUACGCCAU", "rule met"),
    ("CAAUAGCAAUAUUACGGGUC", "rule not met"),
    ("GUCAAGCAAUAUUACGCAAU", "rule met"),
]
